measurement description: qHTS assay for small molecules that induce genotoxicity in human embryonic kidney cells expressing luciferase-tagged ATAD5 - cell viability (AID 651634); also: nearly all actives have a fitted effect of over 25% in size
condition details: HEK293T ATAD5-luc cells viability, CellTiter-Fluor, 15.5 h; series mostly up to 83.3 µM
Source text: National Center for Advancing Translational Sciences [NCATS] NIH Chemical Genomics Center [NCGC] U.S. Environmental Protection Agency [EPA] National Institutes of Environmental Health Sciences [NIEHS] National Toxicology Program [NTP] U.S. Food and Drug Administration [FDA] Enhanced Level of Genome Instability Gene 1 (ELG1; human ATAD5) protein levels increase in response to various types of DNA damage. […]
Results filed as inconclusive are left out. Calls of active or inactive are those of the source. Calls follow the shape of the full dose curve.
Possible outcomes: 1 (active), 0 (inactive)

| molecule | discrete label |
| --- | --- |
| Cc1cc(-c2ccc(N=Nc3ccc4c(S(=O)(=O)O)cc(S(=O)(=O)O)c(N)c4c3O)c(C)c2)ccc1N=Nc1ccc2c(S(=O)(=O)O)cc(S(=O)(=O)O)c(N)c2c1O | 1 |
| Cc1ncc(C[n+]2csc(CCOP(=O)(O)O)c2C)c(N)n1 | 0 |
| C[C@@H]1O[C@@H](OC[C@H]2O[C@@H](Oc3c(-c4ccc(OCCO)c(OCCO)c4)oc4cc(OCCO)cc(O)c4c3=O)[C@H](O)[C@@H](O)[C@@H]2O)[C@H](O)[C@H](O)[C@H]1O | 0 |
| O=C(O)CCCC/C=C(\c1ccccc1)c1cccnc1 | 0 |
| Clc1nc(C(Cl)(Cl)Cl)c(Cl)c(Cl)c1Cl | 1 |
| CO/N=C(\C(=O)N[C@@H]1C(=O)N2C(C(=O)O)=C(COC(C)=O)CS[C@H]12)c1csc(N)n1 (stereo in doubt) | 0 |
| O=C(CCN1CCC(c2ccccc2)C1)c1ccc2c(c1)OCCO2 (stereo not drawn) | 0 |
| CCN(CC)C(=O)[C@]1(c2ccccc2)C[C@@H]1CN | 0 |
